tested on: Strep. faecalis; assay: antimicrobial activity, MIC by agar dilution method, Strep. faecalis; format: cell-based; settings: Enterococcus faecalis, 17 test strains, MIC refers to over 90% of tested strains, read-out: Minimal Inhibitory Concentration
Result type: MIC90

CCC1OC(=O)CC(O)C(C)C(OC2OC(C)C(OC3CC(C)(O)C(O)C(C)O3)C(N(C)C)C2O)C(CC=NO)CC(C)C(=O)C=CC(C)=CC1COC1OC(C)C(O)C(OC)C1OC (stereo not shown)	1 to 4 µg/mL
CCC1OC(=O)CC(O)C(C)C(OC2OC(C)C(OC3CC(C)(O)C(O)C(C)O3)C(N(C)C)C2O)C(CCO)CC(C)C(=O)C=CC(C)=CC1COC1OC(C)C(O)C(OC)C1OC (stereo not shown) [Ia, 20-deoxo-20-hydroxy tylosin, reference compound]	64 µg/mL
CCC1OC(=O)CC(O)C(C)C(OC2OC(C)C(OC3CC(C)(O)C(O)C(C)O3)C(N(C)C)C2O)C(CC=O)CC(C)C(=O)CCC(C)CC1COC1OC(C)C(O)C(OC)C1OC (stereo not shown) [II, 10,11,12,13-tetrahydro tylosin]	4 to 8 µg/mL

Could you now look at the following compound, please?
Task item: State its MIC90: CCC1OC(=O)CC(O)C(C)C(OC2OC(C)C(OC3CC(C)(O)C(O)C(C)O3)C(N(C)C)C2O)C(CC=O)CC(C)C(O)CCC(C)CC1COC1OC(C)C(O)C(OC)C1OC (stereo not shown)
Reply: 8 to 32 µg/mL
